# Lookup of reported pIC50 keyed by entry
target_desc: GDP loaded biotinylated KRas^G12C protein (Homo sapiens, UniProt P01116, G12C)
Construct: biotin (biotinylated); made in house
Sequence (P01116 1-188 isoform P01116-2 G12C): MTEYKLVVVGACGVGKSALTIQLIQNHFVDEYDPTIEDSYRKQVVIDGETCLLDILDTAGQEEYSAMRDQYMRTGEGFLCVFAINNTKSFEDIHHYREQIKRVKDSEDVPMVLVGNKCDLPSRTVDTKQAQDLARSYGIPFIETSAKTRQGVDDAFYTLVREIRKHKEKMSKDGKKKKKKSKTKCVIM
assay_explanation: KRasG12C functional assay
Type: biochemical
experimental_context: HTRF FRET readout of SOS-mediated nucleotide exchange and GST-Raf RBD binding; samples incubated for 4 hrs; read-out: KRasG12C functional assay IC50 value
Note on units: pIC50 is unitless, being -log10 of a concentration expressed in mol/L.

Before answering, review these 5 worked examples.
# pIC50 of C=CC(=O)N1CCN2c3ncnc4cc(-c5c(O)cccc5Cl)c(Cl)c(c34)OC[C@@H]2C1 (single isomer, unassigned) [Example 15] = 4.64

# pIC50 of C=CC(=O)N1CCN2c3ncnc4cc(-c5cccc(NC(C)=O)c5)c(Cl)c(c34)OC[C@@H]2C1 [Example 23] = 5.05

# pIC50 of C=CC(=O)N1CCN2c3ncnc4cc(-c5cccc6c5CCCOC6)c(Cl)c(c34)OC[C@@H]2C1 [Example 28] = 5.00

# pIC50 of C=CC(=O)N1CCN2c3ncnc4cc(-c5cccc(F)c5OC)c(Cl)c(c34)OC[C@@H]2C1 [Example 26] = 5.69

# pIC50 of C=CC(=O)N1CCN2c3ncnc4cc(-c5cc(F)ccc5F)c(Cl)c(c34)OC[C@@H]2C1 [Example 40] = 6.02

***
# pIC50 of C=CC(=O)N1CCN2c3ncnc4cc(-c5c(C)ccc6[nH]ncc56)c(Cl)c(c34)OCC[C@@H]2C1 (single isomer, unassigned) [Example 82] = 6.78

# pIC50 of C=CC(=O)N1CCN2c3nc(N4CCOCC4)nc4cc(-c5c(C)ccc6[nH]ncc56)c(Cl)c(c34)OC[C@@H]2C1 (single isomer, unassigned) [Example 72] = 4.40

Each recorded value in this set is attributed to patent US20220127281A1.
